- Test system: P. aeruginosa ATCC 10145
- measurement parameters: CFU assay, 10 mM NaP, pH 5.5, 0.25% glucose
Ends that are not written are not given here.
readout label: LD100 (µg/mL)
Form entry: value (µg/mL) — number only.

Completed entries (count: 2):
primary_sequence="HTHSGHAHGQAGSQHGESGSSVHER [FLG-22044-2068]" tested_on="P. aeruginosa ATCC 10145" readout_label=LD100 unit_label=µg/mL measured_number=0.3
primary_sequence="GRHGGGGGHGGGHGGHGGGGGR [HR 1-18,L-G/Q-G/6S-6G]" tested_on="P. aeruginosa ATCC 10145" readout_label=LD100 unit_label=µg/mL measured_number=0.15

## Input Lab note: P. aeruginosa ATCC 10145 assay, enter LD100 for GRHGSGGGHSSSHGGHGSGSGR [HR 1-18,L-G/Q-G] here
## Output 0.15

====

LD100 values by entry
- Test system: P. aeruginosa ATCC 10145
- measurement parameters: CFU assay, 10 mM NaP, pH 5.5, 0.25% glucose
Ends that are not written are not given here.

Completed entries (count: 2):
primary_sequence="HSSSHGQHGSGSGR [HR 1-38]" result="> 300 µg/mL"
primary_sequence="GRGGSGLGGSSSGGQGGSGSGRSSSRGPY [HR 1-174H-4G]" result="> 300 µg/mL"

## Input Provide LD100 value for the following sequence: QSGTRHETSSGGQAASSQEQAR [FLG1652-1674]
## Output > 300 µg/mL
